# assayText: Pharmacokinetics and oral bioavailability after IV and PO dosing
# Assay type: in vivo, female CD-1 mice
# recordedConditions: female, CD-1, mouse, plasma; 10 mg/kg oral suspension dose
# Procedure: The objective of this study was to evaluate the pharmacokinetics and oral bioavailability of PDE4 inhibitors following intravenous (IV) administration and oral (PO) doses in female CD-1 mice. After dosing, blood samples were collected through 24 h, twice from each animal at specific times (3 mice/time point), into microcentrifuge tubes containing K2EDTA (anticoagulant), stored on wet ice and processed for plasma. […]
observable: AUC (µg·h/mL)
Give bare numbers, in µg·h/mL.

Solved cases below.
- compound: "CC(=O)CCCOc1nc(Oc2ccc3c(c2)COB3O)c(C#N)cc1C#N [Compound D244]"
  observable: "AUC"
  assayResult: 13.6
- compound: "CC(C)OCCOc1nc(Oc2ccc3c(c2)COB3O)c(C(F)(F)F)cc1C#N [Compound D238]"
  observable: "AUC"
  assayResult: 11.2
- compound: "CC(C)OCCOc1nc(Oc2ccc3c(c2)COB3O)c(C2CC2)cc1C#N [Compound D237]"
  observable: "AUC"
  assayResult: 6.92
- compound: "CC(=O)CCCOc1nc(Oc2ccc3c(c2)COB3O)c(Cl)cc1C#N [Compound D231]"
  observable: "AUC"
  assayResult: 8.5
- compound: "CC(=O)CCCOc1nc(Oc2cc(F)c3c(c2)COB3O)c(Cl)cc1C#N [Compound D248]"
  observable: "AUC"
  assayResult: 91

Return reported AUC values for all items listed beneath this line.
1. [2H]C1([2H])OB(O)c2ccc(Oc3nc(OCCOC(C)C)c(C#N)cc3Cl)cc21 [Compound D251]
2. CC(=O)CCCOc1nc(Oc2ccc3c(c2)COB3O)ccc1C#N [Compound D141, reference compound]
3. N#Cc1cc(Cl)c(Oc2ccc3c(c2)COB3O)nc1OCCOC(F)(F)F [Compound D235]
4. CC(C)OCCOc1nc(Oc2cc(F)c3c(c2)COB3O)c(Cl)cc1C#N [Compound D247]
5. CC(C)OCCOc1nc(Oc2ccc3c(c2)COB3O)c(Cl)cc1C#N [Compound D230]
6. CC(=O)CCCOc1nc(Oc2cc3c(cc2F)B(O)OC3)c(Cl)cc1C#N [Compound D250]

Reply:
1: 6.3; 2: 1.3; 3: 5.84; 4: 21; 5: 3; 6: 17

====

# assayText: Pharmacokinetics and oral bioavailability after IV and PO dosing
# Type: in vivo, female CD-1 mice
# recordedConditions: mouse, plasma, 5 mg/kg; female CD-1 mice, intravenous
Classification field: enter condition met for clearance values not below 30 mL/min/kg, condition not met for values below it.

- molecule: "CC(C)OCCOc1nc(Oc2ccc3c(c2)COB3O)c(C2CC2)cc1C#N"
  className: "condition not met"
- molecule: "CC(C)OCCOc1nc(Oc2ccc3c(c2)COB3O)c(C#N)cc1C#N"
  className: "condition met"
- molecule: "CC(=O)CCCOc1nc(Oc2ccc3c(c2)COB3O)c(Cl)cc1C#N"
  className: "condition not met"
- molecule: "CC(C)OCCOc1nc(Oc2cc(F)c3c(c2)COB3O)c(Cl)cc1C#N"
  className: "condition not met"
- molecule: "CC(=O)CCCOc1nc(Oc2ccc3c(c2)COB3O)c(C2CC2)cc1C#N"
  className: "condition met"

Task item: Can `CC(=O)CCCOc1nc(Oc2ccc3c(c2)COB3O)c(C#N)cc1C#N` be said to have clearance at or above 30 mL/min/kg?
Reply: condition not met

Task item: Can `CC(C)OCCOc1nc(Oc2cc3c(cc2F)B(O)OC3)c(Cl)cc1C#N` be said to have clearance at or above 30 mL/min/kg?
Reply: condition met

Task item: Can `CC(C)OCCOc1nc(Oc2ccc3c(c2)COB3O)ccc1C#N` be said to have clearance at or above 30 mL/min/kg?
Reply: condition met

Task item: Can `CC(=O)CCCOc1nc(Oc2ccc3c(c2)COB3O)cc(C(F)(F)F)c1C#N` be said to have clearance at or above 30 mL/min/kg?
Reply: condition met

Task item: Can `CC(C)OCCOc1nc(Oc2cc(F)c3c(c2)COB3O)cc(C(F)(F)F)c1C#N` be said to have clearance at or above 30 mL/min/kg?
Reply: condition not met

Task item: Can `N#Cc1cc(Cl)c(Oc2ccc3c(c2)COB3O)nc1OCCOC(F)(F)F` be said to have clearance at or above 30 mL/min/kg?
Reply: condition not met

Task item: Can `[2H]C1([2H])OB(O)c2ccc(Oc3nc(OCCOC(C)C)c(C#N)cc3Cl)cc21` be said to have clearance at or above 30 mL/min/kg?
Reply: condition met

Task item: Can CC(=O)CCCOc1nc(Oc2ccc3c(c2)COB3O)ccc1C#N [Compound D141, reference compound] be said to have clearance at or above 30 mL/min/kg?
Reply: condition met

Task item: Can `CC(C)OCCOc1nc(Oc2ccc3c(c2)COB3O)c(C(F)(F)F)cc1C#N` be said to have clearance at or above 30 mL/min/kg?
Reply: condition not met

Task item: Can `CC(C)OCCOc1nc(Oc2ccc3c(c2)COB3O)cc(C(F)(F)F)c1C#N` be said to have clearance at or above 30 mL/min/kg?
Reply: condition not met

Task item: Can `CC(C)OCCOc1nc(Oc2ccc3c(c2)COB3O)c(Cl)cc1C#N` be said to have clearance at or above 30 mL/min/kg?
Reply: condition met

Task item: Can `CC(=O)CCCOc1nc(Oc2cc(F)c3c(c2)COB3O)c(Cl)cc1C#N` be said to have clearance at or above 30 mL/min/kg?
Reply: condition not met

Task item: Can `CC(=O)CCCOc1nc(Oc2cc3c(cc2F)B(O)OC3)c(Cl)cc1C#N` be said to have clearance at or above 30 mL/min/kg?
Reply: condition not met

====

# Tested on: TNF-α
# assayText: In vivo TNF-α release in LPS treated mice
# Parameters: species or system Swiss Webster mice
# recordedConditions: Oral Dose 30 mg/kg
Field: % Inhibition of TNFa Blood Levels in LPS Treated Mice. Provide a value for each of the molecules that follow.
Give the figure together with its unit, number first.

- molecule: "CC(=O)CCCOc1nc(Oc2ccc3c(c2)COB3O)ccc1C#N [Compound D141, reference compound]"
  assayResult: "67.1%"
- molecule: "COc1ccc(C2CNC(=O)C2)cc1OC1CCCC1 (centres unmarked) [Rolipram]"
  assayResult: "62.7%"
- molecule: "CC(=O)CCCOc1nc(Oc2ccc3c(c2)COB3O)c(Cl)cc1C#N [Compound D231]"
  assayResult: "97.3%"
- molecule: "CC(C)OCCOc1nc(Oc2ccc3c(c2)COB3O)ccc1C#N [Compound D140]"
  assayResult: "83.5%"

Task item: What value of % Inhibition of TNFa Blood Levels in LPS Treated Mice has been reported for the following molecule? O=C(Nc1c(Cl)cncc1Cl)c1ccc(OC(F)F)c(OCC2CC2)c1 [Roflumilast]
Reply: 73.5%

====

# assayText: Pharmacokinetics and oral bioavailability after IV and PO dosing
# Type: in vivo, female CD-1 mice
# recordedConditions: female, CD-1, mouse, plasma, po
observable: bioavailability (%)
Give bare numbers, in %.

- compound: "CC(=O)CCCOc1nc(Oc2cc3c(cc2F)B(O)OC3)c(Cl)cc1C#N"
  unitAbbreviation: "%"
  bioavailability: 71
- compound: "CC(=O)CCCOc1nc(Oc2ccc3c(c2)COB3O)c(C2CC2)cc1C#N"
  unitAbbreviation: "%"
  bioavailability: 100
- compound: "CC(C)OCCOc1nc(Oc2ccc3c(c2)COB3O)c(C(F)(F)F)cc1C#N"
  unitAbbreviation: "%"
  bioavailability: 65
- compound: "CC(=O)CCCOc1nc(Oc2ccc3c(c2)COB3O)cc(C(F)(F)F)c1C#N"
  unitAbbreviation: "%"
  bioavailability: 15
- compound: "CC(=O)CCCOc1nc(Oc2ccc3c(c2)COB3O)ccc1C#N [Compound D141, reference compound]"
  unitAbbreviation: "%"
  bioavailability: 32
- compound: "CC(=O)CCCOc1nc(Oc2ccc3c(c2)COB3O)c(Cl)cc1C#N"
  unitAbbreviation: "%"
  bioavailability: 96
- compound: "CC(=O)CCCOc1nc(Oc2cc(F)c3c(c2)COB3O)c(Cl)cc1C#N"
  unitAbbreviation: "%"
  bioavailability: 79
- compound: "CC(C)OCCOc1nc(Oc2cc3c(cc2F)B(O)OC3)c(Cl)cc1C#N"
  unitAbbreviation: "%"
  bioavailability: 100

Return reported bioavailability values for all items listed beneath this line.
1. CC(C)OCCOc1nc(Oc2ccc3c(c2)COB3O)ccc1C#N
2. CC(C)OCCOc1nc(Oc2ccc3c(c2)COB3O)c(C#N)cc1C#N
3. CC(C)OCCOc1nc(Oc2cc(F)c3c(c2)COB3O)c(Cl)cc1C#N
4. CC(C)OCCOc1nc(Oc2cc(F)c3c(c2)COB3O)cc(C(F)(F)F)c1C#N
5. CC(C)OCCOc1nc(Oc2ccc3c(c2)COB3O)c(Cl)cc1C#N
6. CC(C)OCCOc1nc(Oc2ccc3c(c2)COB3O)cc(C(F)(F)F)c1C#N
7. CC(C)OCCOc1nc(Oc2ccc3c(c2)COB3O)c(C2CC2)cc1C#N

Reply:
1: 24; 2: 96; 3: 100; 4: 58; 5: 60; 6: 100; 7: 100

Task item: What value of bioavailability has been reported for the following compound? `CC(=O)CCCOc1nc(Oc2ccc3c(c2)COB3O)c(C#N)cc1C#N`
Reply: 100
